System: Lymphocyte
Assay: Cytoprotective activity in human lymphocytes obtained from Leigh's syndrome patient assessed as viable cells after 16 hrs by trypan blue exclusion assay
Format: functional, cell-based
Value Kind: Activity

[
  {
    "Structure": "Cc1c(N(C)C)nc(CCCCCCCCCCO)c(O)c1C",
    "Value Kind": "Activity",
    "Measurement": "Dose-dependent effect"
  },
  {
    "Structure": "CCCCCCCCCCc1nc(N(C)C)c(C)c(C)c1O",
    "Value Kind": "Activity",
    "Measurement": "Dose-dependent effect"
  },
  {
    "Structure": "CCCCCCCCCCCCCCCCc1c(C)c(N2CCC2)nc(C)c1O",
    "Value Kind": "Activity",
    "Measurement": "Dose-dependent effect"
  },
  {
    "Structure": "CCCCCCCCCCCCCCCCc1nc(N(C)C)c(C)c(C)c1O",
    "Value Kind": "Activity",
    "Measurement": "Dose-dependent effect"
  },
  {
    "Structure": "CCCCCCCCCCCCCCCCCCCc1c(C)c(N(C)C)nc(C)c1O",
    "Value Kind": "Activity",
    "Measurement": "Dose-dependent effect"
  },
  {
    "Structure": "CCCCCCCCCCCCCCCCc1nc(N2CCC2)c(C)c(C)c1O",
    "Value Kind": "Activity",
    "Measurement": "Dose-dependent effect"
  },
  {
    "Structure": "CCCCCCCCCCc1c(C)c(N(C)C)nc(C)c1O",
    "Value Kind": "Activity",
    "Measurement": "Dose-dependent effect"
  },
  {
    "Structure": "CCCCCCCCCCCCCCCCCCCc1nc(N(C)C)c(C)c(C)c1O",
    "Value Kind": "Activity",
    "Measurement": "Dose-dependent effect"
  },
  {
    "Structure": "CCCCCCCCCCCCCCCCc1c(C)c(N(C)C)nc(C)c1O",
    "Value Kind": "Activity",
    "Measurement": "Dose-dependent effect"
  }
]

###

Species: Bos taurus
Test: Inhibition of bovine heart mitochondrial NADH oxidase complex I/III/IV assessed as remaining activity at 10 uM by spectrophotometry relative to untreated control
In this section, each of the compounds is paired with its reported Activity.

[
  {
    "Structure": "CCCCCCCCCCc1c(C)c(N(C)C)nc(C)c1O",
    "Activity": "8%"
  },
  {
    "Structure": "Cc1c(N(C)C)nc(CCCCCCCCCCO)c(O)c1C",
    "Activity": "6%"
  },
  {
    "Structure": "CCCCCCCCCCCCCCCCc1nc(N(C)C)c(C)c(C)c1O",
    "Activity": "92%"
  }
]

###

Assay: Drug metabolism in bovine liver microsomes at 25 uM after 30 mins by reverse phase HPLC analysis
Type: ADME, Bos taurus
Settings: cattle, read-out: Drug metabolism
In this section, each of the compounds is paired with its reported metabolised at 0.5 h, 25 µM.

[
  {
    "Structure": "Cc1c(N(C)C)nc(CCCCCCCCCCO)c(O)c1C",
    "metabolised at 0.5 h, 25 µM [%]": 60
  },
  {
    "Structure": "CCCCCCCCCCCCCCCCc1nc(N(C)C)c(C)c(C)c1O",
    "metabolised at 0.5 h, 25 µM [%]": 20
  },
  {
    "Structure": "CCCCCCCCCCCCCCCCc1c(C)c(N(C)C)nc(C)c1O",
    "metabolised at 0.5 h, 25 µM [%]": 20
  },
  {
    "Structure": "CCCCCCCCCCc1nc(N(C)C)c(C)c(C)c1O",
    "metabolised at 0.5 h, 25 µM [%]": 25
  }
]

Data provenance is ChEMBL document CHEMBL3352113.
